Recorded values, source PubChem BioAssay AID1259407.

Test system: CCRIS mutagenicity, Ames/micronucleus/aberration tests
assayRemarks: CCRIS mutagenicity studies
conditionSummary: Test System: AMES SALMONELLA TYPHIMURIUM; Strain/Indicator: TA100; Metabolic Activation: NONE; Method: STANDARD PLATE
The source made the active and inactive calls. The rule behind the calls is not given here.
Outcomes: active, inactive

molecule: CCSCCSP(=O)(OC)OC
labelClass: inactive
//
molecule: O=C1c2ccc(O)c(O)c2C(=O)c2c(O)ccc(O)c21
labelClass: inactive
//
molecule: BrC(Br)Br
labelClass: inactive
//
molecule: CN(C)CCN(Cc1cccs1)c1ccccn1
labelClass: inactive
//
molecule: N[C@@H](CSC(Cl)=C(Cl)Cl)C(=O)O
labelClass: active
//
molecule: O=C(Nc1ccc([N+](=O)[O-])cc1)c1csc([N+](=O)[O-])c1
labelClass: active
//
molecule: CC(=O)c1cc(C(C)(C)C)cc2c1CCC2(C)C
labelClass: inactive
//
molecule: CC(F)(F)F
labelClass: inactive
//
molecule: CCCCCC(O)CC(=O)CCC1CCC(O)C(OC)C1 (stereo not given)
labelClass: inactive
//
molecule: O=C1N=NC(=O)C2C=CC=CC12 (stereo not given)
labelClass: inactive
//
molecule: c1ccc2c(c1)OCCOCCOCCOCCO2
labelClass: inactive
//
molecule: Nc1ccccc1N
labelClass: inactive
//
molecule: CCOC(=O)c1[nH]c2ccccc2c1N=Cc1ccc(O)cc1
labelClass: inactive
//
molecule: COc1cc(-c2nc(-c3ccccc3)c(-c3ccccc3)[nH]2)ccc1O
labelClass: active
//
molecule: BrC(Br)C(Br)Br
labelClass: inactive
//
molecule: c1ccc2c(c1)oc1ccccc12
labelClass: inactive
//
molecule: OO
labelClass: active
//
molecule: C1CCC2OCCOCCOC3CCCCC3OCCOCCOC2C1 (stereo not given)
labelClass: inactive
//
molecule: O=C(O)c1ccccn1
labelClass: inactive
//
molecule: CSc1ccc(Cl)cc1
labelClass: inactive
//
molecule: Cc1nnc(NS(=O)(=O)c2ccc(N)cc2)s1
labelClass: inactive
//
molecule: Clc1nnc(Cl)c2ccccc12
labelClass: inactive
//
molecule: Cc1ccc2nsc(N)c2c1
labelClass: inactive
//
molecule: O=C1NC(=O)C(Cl)C1=C(Cl)Cl (stereo not given)
labelClass: active
//
molecule: NC(=O)c1cccc2cccnc12
labelClass: inactive

====

Tested on: CCRIS mutagenicity, Ames/micronucleus/aberration tests
assayRemarks: CCRIS mutagenicity studies
conditionSummary: Test System: AMES SALMONELLA TYPHIMURIUM; Strain/Indicator: TA98; Metabolic Activation: NONE; Method: STANDARD PLATE
Active and inactive are the calls of the source. How the calls were made is not given here.
Outcomes: t (active), f (inactive)

smilesStructure: CC(C)COS(=O)(=O)c1ccccc1
labelClass: t
--
smilesStructure: CC(=O)Nc1ccccc1C
labelClass: f
--
smilesStructure: N#[N+]c1cccc2c1C(=O)c1ccccc1C2=O
labelClass: f
--
smilesStructure: O=[N+]([O-])O[C@@H]1CO[C@H]2[C@@H]1OC[C@@H]2O
labelClass: f
--
smilesStructure: CC(C)c1cc(N)cc([N+](=O)[O-])c1N
labelClass: f
--
smilesStructure: C[C@]12CC[C@H](OC(=O)/C=C/c3cccc(N(CCCl)CCCl)c3)CC1=CC[C@@H]1[C@@H]2CC[C@]2(C)NC(=O)CC[C@@H]12
labelClass: f

====

Test system: CCRIS mutagenicity, Ames/micronucleus/aberration tests
assayRemarks: CCRIS mutagenicity studies
conditionSummary: Test System: AMES SALMONELLA TYPHIMURIUM; Strain/Indicator: TA98; Metabolic Activation: HAMSTER, LIVER, S-9, AROCLOR 1254; Method: PREINCUBATION
Active and inactive are the calls of the source. How the calls were made is not given here.
Outcomes: 1 for active, -1 for inactive

molecule: Nc1ccc([N+](=O)[O-])cc1O
labelClass: 1
//
molecule: O=C(Cl)c1ccccc1F
labelClass: 1
//
molecule: [Li+]
labelClass: -1
//
molecule: O=[N+]([O-])c1ccc(Nc2ccc(Nc3ccccc3)c(S(=O)(=O)O)c2)c([N+](=O)[O-])c1
labelClass: 1
//
molecule: C=CCc1ccc(O)c(OC)c1
labelClass: -1
//
molecule: O=Cc1ccco1
labelClass: -1
//
molecule: CCOc1ccc(NC(N)=O)cc1
labelClass: -1
//
molecule: CC1CNCC(C)O1 (stereo unspecified)
labelClass: -1
//
molecule: C=C(C)[C@H]1CC=C(C)C(=O)C1
labelClass: -1
//
molecule: Clc1cccc(Cl)c1
labelClass: -1
//
molecule: CCCCCCc1ccc(O)cc1O
labelClass: -1

====

Tested on: CCRIS mutagenicity, Ames/micronucleus/aberration tests
assayRemarks: CCRIS mutagenicity studies
conditionSummary: Test System: AMES SALMONELLA TYPHIMURIUM; Strain/Indicator: TA1537; Metabolic Activation: RAT, LIVER, S-9, AROCLOR 1254; Method: STANDARD PLATE
From the text: The CCRIS database contains chemical records with carcinogenicity, mutagenicity, tumor promotion, and tumor inhibition test results. It was developed by the National Cancer Institute (NCI). Data are derived from studies cited in primary journals, current awareness tools, NCI reports, and other sources. Test results have been reviewed by experts in carcinogenesis and mutagenesis. CCRIS provides historical information from the years 1985 - 2011. It is no longer updated. […]
Active and inactive are the calls of the source. The rule behind the calls is not given here.
Outcomes: Yes for active, No for inactive

smilesStructure: c1ccc2c(c1)OCCOCCOCCOCCO2
labelClass: No
//
smilesStructure: CCCCCC(=O)O[C@]1(C(C)=O)CC[C@H]2[C@@H]3CCC4=CC(=O)CC[C@@H]4[C@H]3CC[C@@]21C
labelClass: No
//
smilesStructure: CN(CC(=O)NN)c1ccc2ccccc2c1
labelClass: No
//
smilesStructure: O=[N+]([O-])c1ccc2c(c1)Cc1ccccc1-2
labelClass: Yes
//
smilesStructure: O=[Si]=O
labelClass: No
//
smilesStructure: Cc1c(N)cc([N+](=O)[O-])c(N)c1C
labelClass: No
//
smilesStructure: Clc1nnc(Cl)c2ccccc12
labelClass: No

====

Test system: CCRIS mutagenicity, Ames/micronucleus/aberration tests
assayRemarks: CCRIS mutagenicity studies
conditionSummary: Test System: Mouse lymphoma; Strain/Indicator: L5178Y (tk+/tk-); Metabolic Activation: None; Method: Suspension/plate
Source text: The CCRIS database contains chemical records with carcinogenicity, mutagenicity, tumor promotion, and tumor inhibition test results. It was developed by the National Cancer Institute (NCI). Data are derived from studies cited in primary journals, current awareness tools, NCI reports, and other sources. Test results have been reviewed by experts in carcinogenesis and mutagenesis. CCRIS provides historical information from the years 1985 - 2011. It is no longer updated. […]
Calls of active or inactive are those of the source. How the calls were made is not given here.
Outcomes: 1 = active, -1 = inactive

smilesStructure: N[C@@H](CCC(=O)N[C@@H](CS)C(=O)NCC(=O)O)C(=O)O
labelClass: 1
//
smilesStructure: O=C1CCCCC1
labelClass: -1
//
smilesStructure: C=CCNC1=C2C[C@@H](C)C[C@H](OC)[C@H](O)[C@@H](C)/C=C(\C)[C@H](OC(N)=O)[C@@H](OC)/C=C\C=C(/C)C(=O)NC(=CC1=O)C2=O
labelClass: 1
//
smilesStructure: CC1(C)C(=O)[C@]2(C)CC[C@H]1C2
labelClass: -1
//
smilesStructure: COc1cccc2c1[C@H](CO)N1[C@@H](C#N)[C@@H]3C[C@@H](C(=O)O)[C@H]([C@@H]1C2)N3C
labelClass: 1

====

Tested on: CCRIS mutagenicity, Ames/micronucleus/aberration tests
assayRemarks: CCRIS mutagenicity studies
conditionSummary: Test System: AMES SALMONELLA TYPHIMURIUM; Strain/Indicator: TA98; Metabolic Activation: HAMSTER, LIVER, S-9, AROCLOR 1254; Method: STANDARD PLATE
Activity calls are given as the source filed them. The rule behind the calls is not given here.
Outcomes: T for active, F for inactive

smilesStructure: C[Si](C)(C)O[Si](C)(C)O[Si](C)(C)C
labelClass: F
--
smilesStructure: O=C(O)c1ccccn1
labelClass: F
--
smilesStructure: Nc1ccc2cc3ccc(N)cc3nc2c1
labelClass: T
--
smilesStructure: C=CC(=O)OCC(CC)(COC(=O)C=C)COC(=O)C=C
labelClass: F
--
smilesStructure: O=C1c2ccccc2-c2ccccc21
labelClass: F
--
smilesStructure: O=C([O-])/C=C/C(=O)[O-].[Fe+2]
labelClass: T
--
smilesStructure: C=CC(=O)O
labelClass: F
--
smilesStructure: CC(=O)c1ccc(S(=O)(=O)NC(=O)NC2CCCCC2)cc1
labelClass: F
--
smilesStructure: Cc1nnc(NS(=O)(=O)c2ccc(N)cc2)s1
labelClass: F
--
smilesStructure: FC(F)(F)c1ccc(Cl)cc1
labelClass: F
--
smilesStructure: Cc1cc(-c2ccc(N=Nc3cc(S(=O)(=O)O)c4ccccc4c3N)c(C)c2)ccc1N=Nc1cc(S(=O)(=O)O)c2ccccc2c1N
labelClass: F
--
smilesStructure: O=C(CBr)c1ccccc1
labelClass: F
